Below: a set of entries, each annotated with reported EC50.
Test system: L. (V.) panamensis promastigotes
Assay: Antileishmanial activity in L. (V.) panamensis promastigotes (resazurin, 72 h)
Type: cell-based, Leishmania (Viannia) panamensis
Conditions: L. (V.) panamensis promastigotes, ± SD, read-out: EC50 Intracellular promastigotes (converted)
// note: answer is a bare numeric in µM

A selection of reference data follows.
> print(dat)
                                   compound                 target.under.test  unit.annotation  observed.result
1  COc1ccc2c(OC)c3ccoc3nc2c1OC [Compound 5, 4,7,8-trimetoxifure [2,3-b]-quinoline]  L. (V.) panamensis promastigotes               µM              256
2    COc1ccc2c3c(c(=O)n(C)c2c1)C=CC(C)(C)O3  L. (V.) panamensis promastigotes               µM             36.5
3               CCCc1c(CC)nc2ccccc2c1C(=O)O  L. (V.) panamensis promastigotes               µM              496
4  COc1ccccc1-c1cc(C(=O)O)c2ccc(C)c(C)c2n1 [Compound 6, carboxylic acid-7,8-tetrahydro-quinoline]  L. (V.) panamensis promastigotes               µM              240

Now consider a different compound.
[in] Give the reported value of EC50 for this record: Cc1cc2ncccc2c2nc(N)n(C)c12
[out] 134

* * *

Test system: L. (V.) panamensis intracellular amastigotes
Assay: Antileishmanial activity in L. (V.) panamensis intracellular amastigotes in hMDMs
Type: cell-based, Leishmania (Viannia) panamensis
Conditions: amastigotes in hMDMs, 72 h, ± SD
Assay Metric: EC50 (µM)
# number only, unit µM dropped from output

[in] Report the value of EC50 obtained on L. (V.) panamensis intracellular amastigotes for COc1ccc2c3c(c(=O)n(C)c2c1)C=CC(C)(C)O3 .
[out] 29.2

* * *

System: L. (V.) panamensis intracellular amastigotes
Experiment: Antileishmanial activity in L. (V.) panamensis intracellular amastigotes in hMDMs
Assay type: cell-based, Leishmania (Viannia) panamensis
Settings: amastigotes in hMDMs, 72 h, ± SD
Output satisfied for records whose EC50 Intracellular amastigotes is lower than 60 µg/mL, not satisfied for records at or above 60 µg/mL.

> print(dat)
                                   compound  category.label
1  COc1ccccc1-c1cc(C(=O)O)c2ccc(C)c(C)c2n1 [Compound 6, carboxylic acid-7,8-tetrahydro-quinoline]       satisfied
2  CCCc1c(CC)nc2ccccc2c1C(=O)O [Compound 3]   not satisfied
3  COc1ccc2c3c(c(=O)n(C)c2c1)C=CC(C)(C)O3 [Compound 1, N-methyl-8-methoxyflindersin]       satisfied

Consider the record given below.
[in] Consider Cc1cc2ncccc2c2nc(N)n(C)c12 [Compound 7] . Does its EC50 Intracellular amastigotes lie strictly below 60 µg/mL?
[out] satisfied

* * *

Tested on: L. (V.) panamensis intracellular amastigotes
Experiment: Antileishmanial activity in L. (V.) panamensis intracellular amastigotes in hMDMs
Format: cell-based, Leishmania (Viannia) panamensis
Conditions: CC50 hMDMs / EC50 intracellular amastigotes
Label -1 if SI (selectivity index = CC50/EC50) falls below 2; label 1 in every other case.

Worked examples follow.
Compound	Category Label
COc1ccc2c(OC)c3ccoc3nc2c1OC [Compound 5, 4,7,8-trimetoxifure [2,3-b]-quinoline]	-1
Cc1cc2ncccc2c2nc(N)n(C)c12	-1
CCCc1c(CC)nc2ccccc2c1C(=O)O	-1
COc1ccc2c3c(c(=O)n(C)c2c1)C=CC(C)(C)O3	1
Cc1cc(=O)[nH]c2ccccc12	-1

[in] # check: SI (selectivity index = CC50/EC50) of COc1ccccc1-c1cc(C(=O)O)c2ccc(C)c(C)c2n1 [Compound 6, carboxylic acid-7,8-tetrahydro-quinoline] is greater than or equal to 2
[out] -1

[in] Can C[C@@H]1[C@H](O)[C@@H](C)/C=C/C=C/C=C/C=C/C=C/C=C/C=C/[C@H](O[C@@H]2O[C@H](C)[C@@H](O)[C@H](N)[C@@H]2O)C[C@@H]2O[C@](O)(C[C@@H](O)C[C@@H](O)[C@H](O)CC[C@@H](O)C[C@@H](O)CC(=O)O[C@H]1C)C[C@H](O)[C@H]2C(=O)O [AMB, amphotericin B, reference compound] be said to have SI (selectivity index = CC50/EC50) at or above 2?
[out] 1

* * *

Tested on: L. (V.) panamensis promastigotes
Assay: Antileishmanial activity in L. (V.) panamensis promastigotes (resazurin, 72 h)
Format: cell-based, Leishmania (Viannia) panamensis
Details: L. (V.) panamensis promastigotes, ± SD
Assay Metric: EC50 Intracellular promastigotes (mg/L)
Could you give me the number in mg/L? Just the number is fine.

> print(dat)
                                   compound  unit.annotation  observed.result
1    COc1ccc2c3c(c(=O)n(C)c2c1)C=CC(C)(C)O3             mg/L              9.9
2  COc1ccccc1-c1cc(C(=O)O)c2ccc(C)c(C)c2n1 [Compound 6, carboxylic acid-7,8-tetrahydro-quinoline]             mg/L             61.3
3               CCCc1c(CC)nc2ccccc2c1C(=O)O             mg/L             93.8
4                Cc1cc2ncccc2c2nc(N)n(C)c12             mg/L             26.5

// switching to the query compound
[in] Specify measured EC50 Intracellular promastigotes for COc1ccc2c(OC)c3ccoc3nc2c1OC [Compound 5, 4,7,8-trimetoxifure [2,3-b]-quinoline] .
[out] 66.4
